system: human stem cell derived neurons; assay: Cell viability of human stem cell derived neurons treated with multi-component formulations (Hoechst/propidium iodide, ArrayScan VTI); format: cell-based; details: Homo sapiens, Neuron, 72 h; three-day incubation; formulations in medium with MSM 0.1 μM and FDP 1 μM; chlorpromazine without MSM and FDP; read-out: IC50 for Cell Loss
Quantity: IC50 (µM)
Only the number, expressed in µM, is required.

Inquiry: Dear colleague, I am looking for the recorded IC50 of the following molecule: `CN(C)CCCN1c2ccccc2Sc2ccc(Cl)cc21`
Reply text: 3.8
